Target: HLA-A*11:01
Experiment: IEDB peptide-MHC binding, purified MHC/competitive/radioactivity; bounds were set here for any values at or beyond the usual limits of such assays
Conditions: source organism: Human immunodeficiency virus 1
OBSERVATION_TYPE: pIC50
FYI, pIC50 means -log10 of a concentration in mol per litre.

| SEQ | pIC50 |
| --- | --- |
| YLAWVPAHK | 6.97 |
| KVLFLDGIDK | 8.11 |
| QIYQEPFKNLK | 7.68 |
| KVYLAWVPAHK | 8.12 |

Given the sequence TVQPIVLPEK , what is its reported pIC50?
8.62

Given the sequence AVFIHNFKRK , what is its reported pIC50?
8.15
